Test: qHTS for Inhibitors of binding or entry into cells for Lassa Virus; note: nearly all actives have a fitted effect of over 50% in size
Details: Lassa virus pseudotype entry inhibition, cell reporter; series mostly up to 37.9 µM
Out of some 300,000 compounds screened, about 3,700 (1.2%) were called active. Another 20% or so got no clear call; they are omitted. Calls come from the whole dose curve; tested in HEK293 cells. Shown is part of a subset that was picked to be rich in actives.
Would you mind answering with one of these outcomes? T = active, F = inactive

# example entries with known answers
Compound | Assigned Label
NC(=O)c1ccccc1N(Cc1ccccc1)S(=O)(=O)c1ccccc1 | F
O=C(NCCCN1CCCC1=O)C(=O)NCC1OCCN1S(=O)(=O)c1ccc(Br)cc1 (centres undefined) | F
O=S(=O)(O)c1cc2onnc2c2ccccc12 | F

Prompt: What outcome does the record of this test show for Cc1ccc(S(=O)(=O)c2nc(-c3cccs3)oc2NCc2cccnc2)cc1 ?
Completion: F

Prompt: Also need CC1CCN(c2ccc(-c3ccc(NC(=O)c4ccco4)cc3)nn2)CC1 , thanks.
Completion: F

Prompt: Input Cc1cccc(N2CCN(C(=O)CCn3c(=O)c4cccn4c4cccnc43)CC2C)c1 (centres undefined)
Completion: T
